# IC50, blocking of IFN-γ release from human PBMC induced by 260 pM hIL-33, donor #603486 listing for each entry below
target-of-assay: T1, human IL-33 (R&D Systems, #3625-IL-010/CF) (human, UniProt O95760 112-270)
T1 sequence (looked up): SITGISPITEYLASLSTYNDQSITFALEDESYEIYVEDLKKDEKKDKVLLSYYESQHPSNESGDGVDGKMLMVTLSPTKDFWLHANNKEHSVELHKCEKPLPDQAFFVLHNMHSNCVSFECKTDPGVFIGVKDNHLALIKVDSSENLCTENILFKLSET
experimental-protocol: cell-based or functional assay
Provide the reading as a plain figure in M.

A selection of reference data follows.
Exercise: Requested field: IC50, blocking of IFN-γ release from human PBMC induced by 260 pM hIL-33, donor #603486. Item: H4H9660P (antibody, human IgG4, V domains shown, Human IgG4 Fc (H4H)) VH: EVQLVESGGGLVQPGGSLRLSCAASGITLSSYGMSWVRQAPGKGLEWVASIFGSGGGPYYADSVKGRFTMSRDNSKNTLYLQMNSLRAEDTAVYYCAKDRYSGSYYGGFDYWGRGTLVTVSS VL: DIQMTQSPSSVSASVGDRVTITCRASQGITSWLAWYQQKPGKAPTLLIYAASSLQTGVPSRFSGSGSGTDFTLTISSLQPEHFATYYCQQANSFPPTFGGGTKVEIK
Solution: 6.67e-10

Exercise: Requested field: IC50, blocking of IFN-γ release from human PBMC induced by 260 pM hIL-33, donor #603486. Item: H4H9629P (antibody, human IgG4, V domains shown, Human IgG4 Fc (H4H)) VH: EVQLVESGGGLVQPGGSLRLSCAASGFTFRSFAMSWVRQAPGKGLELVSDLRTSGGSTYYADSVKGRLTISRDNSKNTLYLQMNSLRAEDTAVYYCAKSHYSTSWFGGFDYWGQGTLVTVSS VL: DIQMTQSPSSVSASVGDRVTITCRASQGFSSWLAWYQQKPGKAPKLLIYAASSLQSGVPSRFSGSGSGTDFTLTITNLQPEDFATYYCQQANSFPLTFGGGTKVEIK
Solution: 8.15e-10

Exercise: Requested field: IC50, blocking of IFN-γ release from human PBMC induced by 260 pM hIL-33, donor #603486. Item: H4H9663P (antibody, human IgG4, V domains shown, Human IgG4 Fc (H4H)) VH: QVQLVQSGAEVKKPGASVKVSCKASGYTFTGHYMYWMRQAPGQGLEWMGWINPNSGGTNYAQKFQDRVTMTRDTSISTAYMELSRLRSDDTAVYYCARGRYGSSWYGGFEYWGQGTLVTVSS VL: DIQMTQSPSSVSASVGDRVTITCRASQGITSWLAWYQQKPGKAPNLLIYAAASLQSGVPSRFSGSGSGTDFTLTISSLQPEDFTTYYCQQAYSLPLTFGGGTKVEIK
Solution: 1.24e-08

Exercise: Requested field: IC50, blocking of IFN-γ release from human PBMC induced by 260 pM hIL-33, donor #603486. Item: H4H9659P (antibody, human IgG4, V domains shown, Human IgG4 Fc (H4H)) VH: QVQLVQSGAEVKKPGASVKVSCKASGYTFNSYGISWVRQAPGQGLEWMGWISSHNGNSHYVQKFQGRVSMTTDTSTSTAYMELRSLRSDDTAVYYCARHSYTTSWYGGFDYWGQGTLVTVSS VL: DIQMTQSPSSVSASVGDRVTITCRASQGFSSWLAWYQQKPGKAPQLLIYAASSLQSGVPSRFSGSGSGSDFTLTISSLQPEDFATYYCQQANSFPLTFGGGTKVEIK
Solution: 1.25e-09

Next:
Exercise: Requested field: IC50, blocking of IFN-γ release from human PBMC induced by 260 pM hIL-33, donor #603486. Item: H4H9640P (antibody, human IgG4, V domains shown, Human IgG4 Fc (H4H)) VH: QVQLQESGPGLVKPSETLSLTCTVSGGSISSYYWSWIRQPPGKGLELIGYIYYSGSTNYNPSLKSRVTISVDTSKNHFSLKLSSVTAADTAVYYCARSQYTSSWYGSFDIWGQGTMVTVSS VL: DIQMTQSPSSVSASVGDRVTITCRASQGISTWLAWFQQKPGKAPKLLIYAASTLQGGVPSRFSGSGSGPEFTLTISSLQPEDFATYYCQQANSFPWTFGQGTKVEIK
Solution: 4.42e-09
